Test system: HT-29
procedure text: Inhibition of cells growth by colorimetric assay (SRB), HT-29
Assay type: cell-based
details: HT-29; SRB, 48 hours exposure
Let's look at some compounds and their measured HT-29 TGI.

# count of solved cases: 2
COc1cc2c(cc1O)CCN[C@]21CS[C@@H]2c3c(OC(C)=O)c(C)c4c(c3[C@H](COC1=O)N1C2[C@H]2c3c(cc(C)c(OC)c3OC(=O)OC(C)(C)C)C[C@@H]([C@@H]1O)N2C)OCO4 (stereo partly shown) [Compound 97] | 2.32E-09
C=COC(=O)Oc1cc2c(cc1OC)[C@@]1(CS[C@@H]3c4c(OC(C)=O)c(C)c5c(c4[C@H](COC1=O)N1C3[C@H]3c4c(cc(C)c(OC)c4OC(=O)OC=C)C[C@@H]([C@@H]1O)N3C)OCO5)N(C(=O)OC=C)CC2 (stereo partly shown) [Compound 99] | 1.03E-07

Asked: Data request, read-out HT-29 TGI, for C=COC(=O)Oc1cc2c(cc1OC)[C@@]1(CS[C@@H]3c4c(OC(C)=O)c(C)c5c(c4[C@H](COC1=O)N1C3[C@H]3c4c(cc(C)c(OC)c4OC(=O)OC=C)C[C@@H]([C@@H]1O)N3C)OCO5)NCC2 (stereo partly shown) [Compound 92]
Given back: 1.11E-09

Asked: Please do the same for COc1cc2c(cc1OC(=O)OC(C)(C)C)CCNC21CSC2c3c(OC(=O)CCCCC4SCC5NC(=O)NC54)c(C)c4c(c3C(COC1=O)N1C(C#N)C3Cc5cc(C)c(OC)c(O)c5C(C21)N3C)OCO4 (stereo not shown) [Compound 123] as well.
Given back: 3.14E-09
